Experiment Description: Emulsion Test (3 wt% brine / heptane)
Format: physicochemical
Run Parameters: water layer; 50 ml 3 wt% brine/50 ml heptane
Quantity Measured: Appearance after 30 mins, water

Examples with their reported Appearance after 30 mins, water follow.
{"Smiles Record": "CCCCCCCCCCCCCCCCNCCc1ccncc1", "Appearance after 30 mins, water": "hazy"}
{"Smiles Record": "CCCCCCN(CCc1ccncc1)CCc1ccncc1", "Appearance after 30 mins, water": "clear"}
{"Smiles Record": "c1ccc(CNCCc2ccncc2)cc1", "Appearance after 30 mins, water": "clear"}
{"Smiles Record": "CCCCCCCCCCCCCCNCCc1ccncc1", "Appearance after 30 mins, water": "hazy"}
{"Smiles Record": "CCCCCCCCCCNCCc1ccccn1", "Appearance after 30 mins, water": "hazy"}

Need Appearance after 30 mins, water for each of these compounds.
1. CCCCCCCCNCCc1ccncc1
2. NCCNCCNCCNCCc1ccccn1
3. NCCNCCNCCc1ccccn1
4. CCCCCCCCNCCc1ccccn1
5. CCCCCCCCCCNCCc1ccncc1
6. CCCCCCNCCc1ccccn1
7. CCCCCCCCCCCCCCCCCCNCCc1ccncc1

Key:
1: clear; 2: clear; 3: clear; 4: clear; 5: hazy; 6: clear; 7: clear

* * *

Experiment Description: Corrosion Test 2 (dynamic wheel test; 3 wt% brine; CO2 + H2S)
Run Parameters: 10 ppm; 24 h, 70° C.
For each record, write down the corresponding % Protection.
Give bare numbers, in %.

{"Smiles Record": "c1ccc(CNCCc2ccccn2)cc1", "% Protection / %": 69}
{"Smiles Record": "NCCNCCc1ccccn1", "% Protection / %": 42}
{"Smiles Record": "CCCCCCCCNCCc1ccccn1", "% Protection / %": 34}
{"Smiles Record": "CCCCCCCCCCCCCCCCCCNCCc1ccccn1", "% Protection / %": 89}
{"Smiles Record": "NCCNCCNCCNCCc1ccccn1", "% Protection / %": 59}
{"Smiles Record": "CCCCCCCCCCCCN(CCc1ccncc1)CCc1ccncc1", "% Protection / %": 65}

With those in mind, consider the next compound.
Exercise: Recorded % Protection for `CCCCCCCCCCCCCCCCCCNCCc1ccncc1` , please?
Key: 94

* * *

Experiment Description: Emulsion Test (3 wt% brine / heptane)
Format: physicochemical
Run Parameters: hydrocarbon layer; 50 ml 3 wt% brine/50 ml heptane
Quantity Measured: Appearance after 30 mins, hydrocarbon

{"Molecule": "CCCCCCCCCCNCCc1ccncc1 [Example 24]", "Data Value": "hazy"}
{"Molecule": "NCCNCCNCCNCCc1ccncc1 [Example 35]", "Data Value": "clear"}
{"Molecule": "CCCCCCCCCCCCCCNCCc1ccccn1 [Example 5]", "Data Value": "hazy"}

* * *

Experiment Description: Corrosion Test 2 (dynamic wheel test; 3 wt% brine; CO2 + H2S)
Run Parameters: 10 ppm; 24 h, 70° C.
Experimental: For each compound three mild steel coupons (approximately 100 mm×12 mm×1.5 mm) were tested at each concentration. Each was contacted in a 250 ml bottle with 200 ml of a test fluid either saturated with a carbon dioxide at 20° C. or containing 100 ppm hydrogen sulphide or having both CO2 and H2 S present in those amounts. […] The weight loss was obtained, and also measured in a control experiment where no inhibitor was present. From this the % protection was calculated as % reduction in weight loss. […]
Quantity Measured: % Protection

Some solved entries appear below for comparison.
{"Compound": "CCCCCCCCCCCCCCCCNCCc1ccccn1 [Example 6]", "Quantity Measured": "% Protection", "Data Value": "41%"}
{"Compound": "CCCCCCCCCCCCNCCc1ccncc1 [Example 25]", "Quantity Measured": "% Protection", "Data Value": "44%"}
{"Compound": "CCCCCCCCCCCCNCCc1ccccn1 [Example 4]", "Quantity Measured": "% Protection", "Data Value": "94%"}
{"Compound": "CCCCCCCCCCNCCc1ccccn1 [Example 3]", "Quantity Measured": "% Protection", "Data Value": "37%"}
{"Compound": "CCCCCCNCCc1ccncc1 [Example 22]", "Quantity Measured": "% Protection", "Data Value": "9%"}

For each of the compounds below, state % Protection.
1. NCCCNCCc1ccccn1 [Example 14]
2. c1ccc(CN(CCc2ccccn2)CCc2ccccn2)cc1 [Example 20]
3. CCCCCCCCCCCCCCCCNCCc1ccncc1 [Example 27]
4. CCCCCCCCCCCCCCNCCc1ccccn1 [Example 5]
5. NCCNCCNCCc1ccccn1 [Example 15]
6. NCCNCCNCCc1ccncc1 [Example 34]

Key:
1. 64%
2. 63%
3. 47%
4. 48%
5. 63%
6. 26%

Exercise: Could you tell me which % Protection is on file for CCCCCCNCCc1ccccn1 [Example 1] ?
Key: 57%
